# Tested on: E. coli V66 + mutant T4 phage, OD growth
# assay_procedure: growth suppression of RecBCD+ V66 E. coli with mutant T4, dose response, counter-screen for AddAB inhibitor project, absorbance, round 2 (AID 651944)
Calls of active or inactive are those of the source.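 Rule for the calls: active = IC50 at or below 10 µM; inactive = IC50 above 10 µM.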
# IC50 values compiled below

Consider the worked cases shown below.
[[record]]
compound_structure_string = "CCn1cc(C(=O)O)c(=O)c2cnc(N3CCN(C(=S)Nc4ccccc4OC)CC3)nc21"
observed = "> 119 µM (inactive)"

[[record]]
compound_structure_string = "CCn1cc(C(=O)O)c(=O)c2cnc(N3CCN(C(=S)NC(=O)c4cccc(C)c4)CC3)nc21"
observed = "> 39.5 µM (inactive)"

[[record]]
compound_structure_string = "CCn1cc(C(=O)O)c(=O)c2cnc(N3CCN(C(=S)Nc4ccccc4F)CC3)nc21"
observed = "> 119 µM (inactive)"


// query Provide only the value of recorded IC50 for "CCn1cc(C(=O)O)c(=O)c2cnc(N3CCN(C(=S)Nc4cccc(C(F)(F)F)c4)CC3)nc21"
// result 77.8 µM (inactive)

// query Provide only the value of recorded IC50 for "CCn1cc(C(=O)O)c(=O)c2cnc(N3CCN(C(=S)Nc4ccc(Cl)cc4)CC3)nc21"
// result 80.9 µM (inactive)

// query Provide only the value of recorded IC50 for "CCn1cc(C(=O)O)c(=O)c2cnc(N3CCN(C(=S)NCc4ccccc4)CC3)nc21"
// result > 119 µM (inactive)

Data provenance is PubChem BioAssay AID651944.
